experiment: folding stability dG unfold (combined trypsin and chymotrypsin); higher = more stable

sequence.content	readout.units	folding stability dG unfold
SAGGSAGGSAGGGMAYTVETEVTLTPDGTRVVRTTVTIEDTEVEETHVTPVAPAAPEGLSAGGSAGGSAGGS [r10_898_JUSTAS]	kcal/mol	-0.231
SQTIRLELKNPDGRKIRIEIPVQRNPGNGYYYVSVKIEYYDPNGKPKERPITAPFNSPEDAEDQAREALRSA [r9_337_TrROS]	kcal/mol	1.69
SAGGKKKKVITVEVPPEATAEELLAALKKADKVFIRTKDGKVREIKVGEKVSPEELKVKPGDTVEIYVSAGG [r13_399_TrROS_Hall]	kcal/mol	1.53
SAGGSAGGSAGGKKVTITITIKVKEGEEITINGKKITVKPGETITITITITVPPKKKKKSAGGSAGGSAGGS [r10_949_TrROS_Hall]	kcal/mol	2.19
SAGMIKIEETDGKLKVTITLKADDPEEITVEMIKEELEKLGLEVAEIKITPEPNEDGQYTVTAEIVVDVSAG [r5_922_TrMRF]	kcal/mol	3.08
SAGGSAGGSAGGSPDGWKFKMEMFTVKVPGAKITIPDGKSITLPPGKEVTIMIMTYVPPSAGGSAGGSAGGS [r4_26_TrROS]	kcal/mol	3.47
SIKFPDGSEIEFEWSEDKEYEVELPNGPIVKIKKVIKEGESWIVEVEFEDGSKVILEVDPNNPEEVQKAIAS [r1_66_TrMRF]	kcal/mol	2.06
SAGGSAGGKIEIVIEGLSEEEVEALAKELRDAGLEIEVTVVPPPAPPPLTAEELAKNPEALKALSAGGSAGG [r6_804_TrROS_Hall]	kcal/mol	0.02
SAWVIPFEVRLPGSPEQARRQVEEWADNIANRYQQNGFRVVDIKIDEIEPDNVRVRLTIQIVPPGQEIPSAG [r14_973_TrROS]	kcal/mol	2.66
SEVKLEVEEEEDGTLRVRLEVKLTREDGREVTRELELELTIELPPVEFETEEERRAALERLLEELEKLLESA [r9_790_TrROS_Hall]	kcal/mol	3.52
SAGGSAGGSKKEYLVLVYNPATGEPFPILAPDDVPFEELAKKIADEILKGLPKDVKIEFVKLGSAGGSAGGS [r20_213_TrMRF]	kcal/mol	0.874
SAGGSGMIPVTVDFPPDVSEEEIKAYVEELEKKGYKVLKVEITTEKDAKGNTLRTVTVVLAPPSLLSAGGSA [r2_442_JUSTAS]	kcal/mol	3.15
